pIC50 values by entry
- Target Or Test System: CyclinE1/CDK2 (Homo sapiens)
- Construct: purchased Eurofins, discovery 14-475
- Experimental Details: Fluorescence Polarization (FP) competitive binding assay, Cyclin E1/Cdk2;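 further: readings taken after two-hour equilibration at room temperature in HEPES buffer with NaCl, DTT, NP-40 and BSA, IC50 fitted from eight-concentration serial dilution series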
- Measurement Context: 10 nM Cyclin E1/Cdk2, 2 nM FAM probe; average of 2-3 independent experiments; read-out: Cyclin E FP IC50
pIC50: −log10 of the molar value. *1 amine or outer side, *2 acyl side, *3 side chain or, on linkers, in order; H or OH if unused. Where a SMILES comes first, the peptide text is derived from it. Bridges are numbered along the chain shown (N, C = ends). [ ]: non-standard residue; d: D form. The star is where a group is joined. X47 = C[C@@H]1CN(c2ccc(-c3ccc(Cl)cc3C[C@@H](C(=O)[*:2])N(C)[*:1])cc2)C[C@H](C)N1C; X81 = COc1cc(N2CCOCC2)ccc1-c1ccc(Cl)cc1C[C@@H](C(=O)[*:2])N(C)[*:1]; X93 = CN([C@@H](Cc1cc(Cl)ccc1-c1ccc(OC2CCOCC2)cc1)C(=O)[*:2])[*:1]; X19 = CN([C@@H](Cc1cc(Cl)ccc1-c1ccn2ccnc2c1)C(=O)[*:2])[*:1]; NMehhhLys(Me) = CN([C@@H](CCCCCCCN(C)[*:3])C(=O)[*:2])[*:1]; X22 = CN([C@@H](Cc1cc(Cl)ccc1-c1cnn(C)c1)C(=O)[*:2])[*:1]; X64 = CN([C@@H](Cc1cc(Cl)ccc1OC1(C)CC1)C(=O)[*:2])[*:1]; Oxane2carbonyl(2R-CF3) = O=C([C@@]1(C(F)(F)F)CCCCO1)*; cBuCO(3,3-F2-1-CF3) = O=C(C1(C(F)(F)F)CC(F)(F)C1)*; Pro(trans-4-F) = O=C(O)[C@@H]1C[C@@H](F)CN1; Gly(cPr) = N[C@H](C(=O)O)C1CC1
Observation Type: pIC50

[[record]]
compound = "COc1cc(N2CCOCC2)ccc1-c1ccc(Cl)cc1C[C@H]1C(=O)N(C)CCCCCCC[C@H](N(C)C(=O)[C@@H](NC(=O)[C@@H]2C[C@@H](F)CN2C(=O)C2(C(F)(F)F)CC(F)(F)C2)C2CC2)C(=O)N[C@@H](CC(C)C)C(=O)N1C [Example 361] ({cBuCO(3,3-F2-1-CF3)}-[Pro(trans-4-F)][Gly(cPr)][NMehhhLys(Me)]L[X81]; lactam 3-C)"
observation_type = "pIC50"
number = 5.74

[[record]]
compound = "CC(C)C[C@@H]1NC(=O)[C@@H](N(C)C(=O)[C@@H](NC(=O)[C@@H]2C[C@@H](F)CN2C(=O)C2(C(F)(F)F)CC(F)(F)C2)C2CC2)CCCCCCCN(C)C(=O)[C@H](Cc2cc(Cl)ccc2-c2ccc(OC3CCOCC3)cc2)N(C)C1=O [Example 340] ({cBuCO(3,3-F2-1-CF3)}-[Pro(trans-4-F)][Gly(cPr)][NMehhhLys(Me)]L[X93]; lactam 3-C)"
observation_type = "pIC50"
number = 5.78

[[record]]
compound = "CC(C)C[C@@H]1NC(=O)[C@@H](N(C)C(=O)[C@@H](NC(=O)[C@@H]2C[C@@H](F)CN2C(=O)C2(C(F)(F)F)CC(F)(F)C2)C2CC2)CCCCCCCN(C)C(=O)[C@H](Cc2cc(Cl)ccc2-c2ccc(N3C[C@@H](C)N(C)[C@@H](C)C3)cc2)N(C)C1=O [Example 384] ({cBuCO(3,3-F2-1-CF3)}-[Pro(trans-4-F)][Gly(cPr)][NMehhhLys(Me)]L[X47]; lactam 3-C)"
observation_type = "pIC50"
number = 6.23

[[record]]
compound = "CC(C)C[C@@H]1NC(=O)[C@@H](N(C)C(=O)[C@@H](NC(=O)[C@@H]2C[C@@H](F)CN2C(=O)C2(C(F)(F)F)CC(F)(F)C2)C2CC2)CCCCCCCN(C)C(=O)[C@H](Cc2cc(Cl)ccc2-c2ccn3ccnc3c2)N(C)C1=O [Example 236] ({cBuCO(3,3-F2-1-CF3)}-[Pro(trans-4-F)][Gly(cPr)][NMehhhLys(Me)]L[X19]; lactam 3-C)"
observation_type = "pIC50"
number = 6.11

[[record]]
compound = "CC(C)C[C@@H]1NC(=O)[C@@H](N(C)C(=O)[C@@H](NC(=O)[C@@H]2C[C@@H](F)CN2C(=O)[C@@]2(C(F)(F)F)CCCCO2)C2CC2)CCCCCCCN(C)C(=O)[C@H](Cc2cc(Cl)ccc2-c2cnn(C)c2)N(C)C1=O [Example 184] ({Oxane2carbonyl(2R-CF3)}-[Pro(trans-4-F)][Gly(cPr)][NMehhhLys(Me)]L[X22]; lactam 3-C)"
observation_type = "pIC50"
number = 7.00

[[record]]
compound = "CC(C)C[C@@H]1NC(=O)[C@@H](N(C)C(=O)[C@@H](NC(=O)[C@@H]2C[C@@H](F)CN2C(=O)C2(C(F)(F)F)CC(F)(F)C2)C2CC2)CCCCCCCN(C)C(=O)[C@H](Cc2cc(Cl)ccc2OC2(C)CC2)N(C)C1=O [Example 259] ({cBuCO(3,3-F2-1-CF3)}-[Pro(trans-4-F)][Gly(cPr)][NMehhhLys(Me)]L[X64]; lactam 3-C)"
observation_type = "pIC50"
number = 6.55

